- Tested on: rodent lifetime carcinogenesis bioassay, tumor incidence TD50
- Run Description: carcinogenic potency in animals, long-term in vivo studies, CPDB compilation (AID 1745844)
- Study Conditions: rat; strain Sprague-Dawley; females; by gavage; site: any site (literature study); lesion: malignant tumor; dosed 32 weeks; study length 101 weeks
Measured Parameter: TD50
Please provide the amount together with its unit, number first.

Request: Given the entry O=NN(CCCC(F)(F)F)CCCC(F)(F)F , report its measured TD50.
Result: 0.291 mg/kg/day

* * *

- System: rodent lifetime carcinogenesis bioassay, tumor incidence TD50
- Run Description: carcinogenic potency in animals, long-term in vivo studies, CPDB compilation (AID 1745844)
- Study Conditions: rat; strain Fischer 344; males; in feed; site: liver; lesion: hepatocellular adenoma + hepatocellular carcinoma; dosed 104 weeks; study length 104 weeks
Measured TD50 of individual entries

Input Smiles: Brc1cc(Br)c(-c2cc(Br)c(Br)cc2Br)cc1Br
Measured On: rodent lifetime carcinogenesis bioassay, tumor incidence TD50
TD50: 0.408 mg/kg/day

Now turn to the next compound.
Request: Given the entry Cc1ncc[nH]1 , report its measured TD50.
Result: 663 mg/kg/day

* * *

- Tested on: rodent lifetime carcinogenesis bioassay, tumor incidence TD50
- Run Description: carcinogenic potency in animals, long-term in vivo studies, CPDB compilation (AID 1745844)
- Study Conditions: rat; strain ACI; females; in feed; site: urinary bladder; lesion: one or several types; types not named; dosed 68 weeks; study length 68 weeks
The source made the active and inactive calls. The rule behind the calls is not given here.
Measured Parameter: TD50

Request: Given the entry O=CC(O)C(O)C(O)C(O)COC1OC(COC2OC(CO)C(O)C(O)C2O)C(O)C(O)C1O (stereo unspecified) , report its measured TD50.
Result: 1640 mg/kg/day (inactive)

* * *

- Tested on: rodent lifetime carcinogenesis bioassay, tumor incidence TD50
- Run Description: carcinogenic potency in animals, long-term in vivo studies, CPDB compilation (AID 1745844)
- Study Conditions: rat; strain Fischer 344; females; in drinking water; site: liver; lesion: neoplastic nodule; dosed 100 weeks; study length 126 weeks
Measured Parameter: TD50

Request: Notebook entry, rodent lifetime carcinogenesis bioassay, tumor incidence TD50 assay: TD50 of O=NN1CCOCC1 = ?
Result: 0.239 mg/kg/day

* * *

- System: rodent lifetime carcinogenesis bioassay, tumor incidence TD50
- Run Description: carcinogenic potency in animals, long-term in vivo studies, CPDB compilation (AID 1745844)
- Study Conditions: mouse; strain Swiss; females; inhaled; site: mammary gland; lesion: carcinoma; dosed 30 weeks; study length 77 weeks
Measured Parameter: TD50

Request: Given the entry C=CCl , report its measured TD50.
Result: 3750 mg/kg/day

* * *

- Test system: rodent lifetime carcinogenesis bioassay, tumor incidence TD50
- Run Description: carcinogenic potency in animals, long-term in vivo studies, CPDB compilation (AID 1745844)
- Study Conditions: mouse; strain B6C3F1; females; by gavage; site: lung; lesion: alveolar/bronchiolar adenoma + alveolar/bronchiolar carcinoma; dosed 104 weeks; study length 105 weeks
Measured Parameter: TD50 (mg/kg/day)
Number only, in mg/kg/day; omit the unit.

Here is how some molecules turned out for TD50.
Input Smiles: c1ccoc1
TD50 / mg/kg/day: 38.5
//
Input Smiles: OC[P+](CO)(CO)CO
TD50 / mg/kg/day: 234

Now turn to the next molecule.
Request: Given the entry Nc1ccc(NCCO)c([N+](=O)[O-])c1 , report its measured TD50.
Result: 4670
